- assayed.target: Adrenergic receptor alpha (Rattus norvegicus) (UniProt P15823+P23944+P43140+P22086+P19328+P22909)
- run.description: Ratio of maximum contraction of rat aorta elicited versus that elicited by noradrenaline (defined as intrinsic activity)
- Assay type: functional, tissue-based
measurement.type: Ratio
// response body must contain only the number

molecule="CCc1cc(C(O)CN)ccc1O (stereo not drawn)" data_value=0.9
molecule="NCC(O)c1ccc(O)c(Cl)c1 (stereo not drawn)" data_value=1

## Task So what does the record say about Ratio for CC(C)c1cc(C(O)CN)ccc1O (stereo not drawn) ?
## Result 1.2

## Task Consider the molecule shown here: "NC[C@H](O)c1ccc(O)c(O)c1" What is its recorded Ratio?
## Result 1

## Task Which Ratio is listed for NCC(O)c1ccc(O)c(C(=O)O)c1 (stereo not drawn) ?
## Result 1

## Task # get_value(readout='Ratio', item= NCC(O)c1ccc(Br)c(O)c1 (stereo not drawn) )
## Result 1

## Task Fill in: Ratio of NCC(O)c1ccc(O)cc1 (stereo not drawn) is ___
## Result 1.1
